// data source = the supplement of paper PMC6805474

- Tested on: Schistosoma mansoni schistosomula (Liberian)
- ASSAY_INFO: drug effect (1 - score/DMSO control score) (fraction); higher = more antischistosomal effect, active = 0.5 or more; extreme values may be limits of the assay
- MEASUREMENT_CONTEXT: 48 h; 10 µM
Result category, one only: active, inactive

Illustrative cases are given below, each with its answer.
What did this assay record as the result for CS(=O)(=O)N1CCC(CCn2nc(Cc3cccc4ccccc34)c3c(N)ncnc32)CC1 ? inactive

What did this assay record as the result for CC(=O)N(CCN(C(=O)c1ccc(F)cc1)c1ccccc1)c1ccccc1 ? inactive

What did this assay record as the result for CCOc1ccc(-c2nc(NC(=O)CS(=O)(=O)c3ccccc3)sc2C)cc1 ? inactive

What did this assay record as the result for COc1ccc(N(CCc2cccc(C)n2)C(C)=O)cc1 ? inactive

Next:
What did this assay record as the result for COc1ccc(OC(C)C(=O)Nc2ccc(Cl)cc2C)cc1 (stereo unspecified) ? inactive

What did this assay record as the result for Cc1noc(C)c1C(=O)N1CCCC(c2[nH]c3c(C)cccc3c2-c2ccncc2)C1 (stereo unspecified) ? active

* * *

- System: Schistosoma mansoni schistosomula (Liberian)
- ASSAY_INFO: drug effect (1 - score/DMSO control score) (fraction); higher = more antischistosomal effect, active = 0.5 or more; extreme values may be limits of the assay
- MEASUREMENT_CONTEXT: 72 h; 10 µM
Result category, one only: yes (1) for active, no (0) for inactive

Illustrative cases are given below, each with its answer.
What did this assay record as the result for Cc1cc(NC(=O)c2ccc(S(=O)(=O)N(Cc3ccccc3)C(C)C)cc2)no1 ? no (0)

What did this assay record as the result for COc1nc2ccc(Br)cc2cc1[C@@H](c1ccccc1)[C@@](O)(CCN(C)C)c1cccc2ccccc12 ? yes (1)

Next:
What did this assay record as the result for CNc1cc(C)nc(C2CN(C(=O)c3n[nH]c4ccccc34)CCO2)c1 (centres undefined) ? no (0)

What did this assay record as the result for N#Cc1nc(-c2ccccc2F)oc1NCCc1ccccc1 ? no (0)

What did this assay record as the result for O=C(c1ccco1)N(CCCn1ccnc1)c1nc2c(Cl)cccc2s1 ? no (0)

* * *

- Test system: Schistosoma mansoni schistosomula (Liberian)
- ASSAY_INFO: drug effect (1 - score/DMSO control score) (fraction); higher = more antischistosomal effect, active = 0.5 or more; extreme values may be limits of the assay
- MEASUREMENT_CONTEXT: 24 h; 10 µM
Result category, one only: class 1 for active, class 0 for inactive

Illustrative cases are given below, each with its answer.
What did this assay record as the result for N#CCN(CCCCN1CCN(c2ccc(F)cc2)CC1)C(=O)OCc1ccccc1 ? class 0

What did this assay record as the result for O=C(Nc1nnc(-c2ccc(Cl)s2)o1)c1ccc(Cl)s1 ? class 0

What did this assay record as the result for FC(F)(F)c1cnc(Sc2nnc(-c3ccncc3)o2)c(Cl)c1 ? class 0

What did this assay record as the result for Nc1cccnc1Nc1ccc(Cl)cc1 ? class 0

What did this assay record as the result for N=C(N)Nc1ccc(-c2ccc(-c3ccc(N=C(N)N)c(Cl)c3)o2)cc1Cl ? class 0

Next:
What did this assay record as the result for CCC(Sc1nc2ccccc2o1)C(=O)Nc1nnc(C)s1 (configuration not stated) ? class 0

What did this assay record as the result for CC(C)(C)n1nc(Cc2ccc(F)c(Cl)c2)c2c(N)ncnc21 ? class 0

What did this assay record as the result for COC(=O)C1=C(C)NC(C)=C(C(=O)OC(C)C)C1c1cccc2nonc12 (configuration not stated) ? class 0

What did this assay record as the result for Cc1ccc(C(=O)Nc2ccc(S(=O)(=O)O)c3cc(S(=O)(=O)O)cc(S(=O)(=O)O)c23)cc1NC(=O)c1cccc(NC(=O)Nc2cccc(C(=O)Nc3cc(C(=O)Nc4ccc(S(=O)(=O)O)c5cc(S(=O)(=O)O)cc(S(=O)(=O)O)c45)ccc3C)c2)c1 ? class 0

* * *

- Test system: Schistosoma mansoni schistosomula (Liberian)
- ASSAY_INFO: drug effect (1 - score/DMSO control score) (fraction); higher = more antischistosomal effect, active = 0.5 or more; extreme values may be limits of the assay
- MEASUREMENT_CONTEXT: 72 h; 10 µM
Result category, one only: Yes (active), No (inactive)

What did this assay record as the result for O=C1Nc2ccc(Br)cc2C12NCCc1c2[nH]c2ccccc12 (stereo unspecified) ? No

What did this assay record as the result for O=C(Nc1cccc(Cl)c1)c1cnc(N2CCN(c3ccncc3)CC2)c(Cl)c1 ? Yes

What did this assay record as the result for Cc1cc(Nc2ccncc2)n2nc(C)c(-c3ccccc3Cl)c2n1 ? No

What did this assay record as the result for CCn1ncc2c(NC3CCOCC3)c(CNC(=O)c3ccnn3C)c(C)nc21 ? No

What did this assay record as the result for Cc1cccc(-c2nc(Nc3ccncn3)c3sccc3n2)n1 ? Yes

Now for another entry.
What did this assay record as the result for CC(C)(C)c1cc(C(=O)Nc2cccnc2)cc(C(=O)Nc2cccnc2)c1 ? No

* * *

- Tested on: Schistosoma mansoni schistosomula (Liberian)
- ASSAY_INFO: drug effect (1 - score/DMSO control score) (fraction); higher = more antischistosomal effect, active = 0.5 or more; extreme values may be limits of the assay
- MEASUREMENT_CONTEXT: 48 h; 10 µM
PROPERTY_MEASURED: drug effect

Form field - read-out: drug effect; system: Schistosoma mansoni schistosomula (Liberian); submitted item: CC(=O)NCC1CN(c2ccc(-c3ccc(CO)cc3)c(F)c2)C(=O)O1 (stereo not given) 0.111 (inactive)

Next:
Form field - read-out: drug effect; system: Schistosoma mansoni schistosomula (Liberian); submitted item: CC(=O)N1CCN(c2ccc(Oc3ccc(Cl)cc3O)cc2)CC1 0.027 (inactive)

Form field - read-out: drug effect; system: Schistosoma mansoni schistosomula (Liberian); submitted item: c1cc(C2=NCCN2)cc(-c2cc(-c3ccc(C4=NCCN4)cc3)no2)c1 0.111 (inactive)

Form field - read-out: drug effect; system: Schistosoma mansoni schistosomula (Liberian); submitted item: Cc1ncc(-c2ccnc(Nc3ccc(S(C)(=O)=O)cc3)n2)n1C(C)C 0.135 (inactive)

Form field - read-out: drug effect; system: Schistosoma mansoni schistosomula (Liberian); submitted item: CC(C)C(Oc1cccc2ccccc12)C(=O)O (stereo not given) < 0 (inactive)

Form field - read-out: drug effect; system: Schistosoma mansoni schistosomula (Liberian); submitted item: O=C(Nc1nnc(-c2ccc(Cl)cc2)o1)c1cccc(C(F)(F)F)c1 0.25 (inactive)

* * *

Quick reference for XTT viability among some compounds
- Test system: Schistosoma mansoni schistosomula (LE)
- ASSAY_INFO: XTT viability relative to DMSO control; higher = more viable (less active)
- MEASUREMENT_CONTEXT: 72 h; 10 µM
Quick reminder: number only, in %, skip the unit.

Here's what some known entries look like.
Entry O=C(NCCc1ccccc1)c1cc(-c2cccnc2)cnc1NCC1CC1 has what XTT viability? 85.9

Entry O=C(NC1CC1)c1ccc(N2CCOc3ccc(Cl)cc32)s1 has what XTT viability? 83.5

Entry COc1cccc(-n2nnnc2S(=O)(=O)Cc2ccccc2)c1 has what XTT viability? -7.15

Entry CC1(COc2ccc(N3CCC(Oc4ccc(OC(F)(F)F)cc4)CC3)cc2)Cn2cc([N+](=O)[O-])nc2O1 (stereo not given) has what XTT viability? 110

Entry Cc1cc(OCC(=O)NCc2ccccc2)c2cc(Br)ccc2n1 has what XTT viability? 111

Entry Cc1ccc(NC(=O)c2nc[nH]c2C(=O)Nc2nc3ccccc3[nH]2)c(C)c1 has what XTT viability? 50.8

Next:
Entry CC[C@H](CO)NCCN[C@H](CC)CO has what XTT viability? 78.3

Entry CC1COC2(CCN(c3nc(=O)c4cc(C(F)(F)F)cc([N+](=O)[O-])c4s3)CC2)O1 (stereo not given) has what XTT viability? 80

Entry CCc1c(C)nc(-n2nc(C)cc2NC(=O)c2ccccc2SC)[nH]c1=O has what XTT viability? -1.13

Entry CO[C@H]1/C=C/O[C@@]2(C)Oc3c(C)c(O)c4c(O)c(/c(=C/NN5CCN(C)CC5)c(O)c4c3C2=O)=N\C(=O)/C(C)=C\C=C/[C@H](C)[C@H](O)[C@@H](C)[C@@H](O)[C@@H](C)[C@H](OC(C)=O)[C@@H]1C has what XTT viability? 116

Entry Cc1cc(Cl)c(S(=O)(=O)N2CCCC2)cc1OCC(=O)NC1CCCCC1 has what XTT viability? 111

Entry Nc1ncc(-c2cn[nH]c2)cc1-c1nc2cc(Cl)cnc2[nH]1 has what XTT viability? 94.4

Entry OC[C@H]1O[C@@H](n2c3ccc(Cl)cc3c3c(-c4cc5ccccc5o4)ncnc32)C(O)[C@H]1O (stereo not given in full) has what XTT viability? 93.9

Entry O=C(NC1CCN(c2ccnc3ccccc23)C1)c1cccc(C(F)(F)F)c1 (stereo not given) has what XTT viability? 103

Entry CCC(C)NC(=O)c1ccc(NC(=O)C2(c3ccccc3)CCCC2)cc1 (stereo not given) has what XTT viability? 90.6

Entry O=C(Nc1nnc(-c2ccc(Cl)s2)o1)c1ccc(Cl)s1 has what XTT viability? -3.4

Entry COc1cccc(OC)c1C(=O)Nc1ccc(Cl)c(-c2nc3ccccc3s2)c1 has what XTT viability? 108

Entry N=C(N)c1ccc(OCCCCCOc2ccc(C(=N)N)cc2)cc1 has what XTT viability? 81.9

Entry N#Cc1nc(-c2ccccc2)oc1S(=O)(=O)c1ccc(Cl)cc1 has what XTT viability? -7.61

Entry CNC(=O)C1Cc2c([nH]c3cc(Cl)ccc23)C2(CCN(CCc3ccccc3)CC2)N1 (stereo not given) has what XTT viability? 13.4
